Biological target: T1, MDMX (In-house, 40 kD) (UniProt O15151 1-120, limits assumed)
T1 construct: Only 'MDMX (In-house, 40 kD)' is said of the protein in the FP assays; also called MDM4
T1 sequence (looked up): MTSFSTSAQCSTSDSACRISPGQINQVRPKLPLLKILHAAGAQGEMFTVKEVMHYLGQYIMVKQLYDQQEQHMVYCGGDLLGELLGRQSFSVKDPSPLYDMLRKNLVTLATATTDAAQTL
Assay: competitive FP vs FAM labeled linear peptide; column IC50 (MDMX); + = >1000 nM by the table's scale
Bridges are numbered along the chain shown (N, C = ends). [ ]: non-standard residue; d: D form. NMeW = CN[C@@H](Cc1c[nH]c2ccccc12)C(=O)O; NMeY = CN[C@@H](Cc1ccc(O)cc1)C(=O)O; R8 = C=CCCCCCC[C@@](C)(N)C(=O)O; S5 = C=CCCC[C@](C)(N)C(=O)O; Nle = CCCC[C@H](N)C(=O)O
Catalogue of IC50 values

Input Ac-LTF[R8]AY[NMeW]AQL[S5]AA[Nle]A-NH2 (staple 4-11; not fully specified, Stapled peptidomimetic macrocycle, single isomer iso2; also called Ac-LTF$r8AYNmWAQL$AANleA-NH2) [SP386] , output reported IC50. > 1000 nM

Further cases:
Input Ac-LTF[R8]A[NMeY]WAQL[S5]AA[Nle]A-NH2 (staple 4-11; not fully specified, Stapled peptidomimetic macrocycle, single isomer iso2; also called Ac-LTF$r8ANmYWAQL$AANleA-NH2) [SP384] , output reported IC50. > 1000 nM
